biological target: T1, mouse CXCR4 (mouse, UniProt P70658 1-359); assay: FMAT, hybridoma supernatant on HEK293T cells transiently overexpressing full-length mouse CXCR4
T1 construct: Full-length murine CXCR4 on transiently transfected HEK293T cells; also native on mouse lymphocytes and the EL4 line; also called murine CXCR4
T1 sequence (P70658 whole entry): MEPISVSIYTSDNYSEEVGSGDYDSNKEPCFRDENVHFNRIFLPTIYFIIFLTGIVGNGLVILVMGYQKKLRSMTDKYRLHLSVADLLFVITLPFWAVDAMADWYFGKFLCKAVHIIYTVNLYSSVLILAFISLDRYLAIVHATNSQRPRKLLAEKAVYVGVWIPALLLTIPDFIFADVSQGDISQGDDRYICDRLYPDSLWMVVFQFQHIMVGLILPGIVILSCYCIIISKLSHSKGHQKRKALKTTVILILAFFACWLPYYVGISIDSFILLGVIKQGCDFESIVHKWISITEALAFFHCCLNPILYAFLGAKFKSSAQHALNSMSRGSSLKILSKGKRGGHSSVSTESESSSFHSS
readout.name: FL1
No unit in the answer, only the number.

binder	FL1
2A4 (antibody, V domains shown, Fully human monoclonal antibody from XenoMouse hybridoma; also called mAb 2A4; Mab2A4) VH: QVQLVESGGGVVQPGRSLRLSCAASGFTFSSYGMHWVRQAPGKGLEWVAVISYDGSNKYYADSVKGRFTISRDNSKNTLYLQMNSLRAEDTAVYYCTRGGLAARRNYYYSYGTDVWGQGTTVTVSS VL: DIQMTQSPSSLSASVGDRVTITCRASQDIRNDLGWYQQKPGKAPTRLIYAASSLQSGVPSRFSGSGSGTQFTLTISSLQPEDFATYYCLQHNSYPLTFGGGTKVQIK	954

## Task # get_value(readout='FL1', item= 4C1 (antibody, V domains shown, Fully human monoclonal antibody from XenoMouse hybridoma (strains XMG2 IgG2 or XMG4 IgG4, kappa/lambda); Tested as hybridoma supernatant or purified antibody; also called mAb 4C1; Mab4C1) VH: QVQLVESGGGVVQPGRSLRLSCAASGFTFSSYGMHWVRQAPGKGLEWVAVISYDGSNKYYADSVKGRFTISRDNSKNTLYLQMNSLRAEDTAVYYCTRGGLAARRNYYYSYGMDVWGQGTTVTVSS VL: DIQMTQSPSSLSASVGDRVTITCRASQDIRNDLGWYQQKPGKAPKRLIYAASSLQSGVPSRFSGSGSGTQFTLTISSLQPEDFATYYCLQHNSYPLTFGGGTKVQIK )
## Result 1490

## Task # get_value(readout='FL1', item= 5C9 (antibody, V domains shown, Fully human monoclonal antibody from XenoMouse hybridoma (lambda light chain)) VH: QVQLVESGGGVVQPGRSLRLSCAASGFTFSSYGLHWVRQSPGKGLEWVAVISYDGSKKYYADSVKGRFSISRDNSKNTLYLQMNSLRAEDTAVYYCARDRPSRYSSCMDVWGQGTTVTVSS VL: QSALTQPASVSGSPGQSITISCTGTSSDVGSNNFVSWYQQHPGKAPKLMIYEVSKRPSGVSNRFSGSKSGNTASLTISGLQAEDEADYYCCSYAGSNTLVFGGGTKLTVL )
## Result 4780

## Task # get_value(readout='FL1', item= 7C8 (antibody, V domains shown, Fully human monoclonal antibody from XenoMouse hybridoma) VH: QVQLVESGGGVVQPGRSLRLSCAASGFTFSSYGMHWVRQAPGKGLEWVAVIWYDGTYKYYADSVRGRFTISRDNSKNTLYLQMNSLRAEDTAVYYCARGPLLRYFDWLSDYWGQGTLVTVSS VL: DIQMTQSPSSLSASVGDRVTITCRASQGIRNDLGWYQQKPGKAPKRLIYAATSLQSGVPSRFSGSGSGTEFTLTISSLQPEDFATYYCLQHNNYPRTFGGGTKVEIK )
## Result 2400
